Test system: carrageenan-induced paw edema
Assay: carrageenan-induced rat paw edema, in vivo anti-inflammatory activity
Conditions: diclofenac sodium = 1
Simple rule here: Effectiveness less than 0.8 is satisfied, otherwise not satisfied.

* COc1ccccc1-c1nocc1-c1ccccc1 | satisfied
* O=[N+]([O-])c1ccc(-c2nocc2-c2ccccc2)cc1 | satisfied
* Oc1cccc(-c2nocc2-c2ccccc2)c1 | satisfied
* O=[N+]([O-])c1cccc(-c2nocc2-c2ccccc2)c1 | satisfied
* O=C(O)Cc1ccccc1Nc1c(Cl)cccc1Cl [Diclofenac sodium, reference compound] | not satisfied
* COc1ccc(-c2nocc2-c2ccccc2)cc1 | satisfied

Shift focus to the following entry.
Challenge: Bench note: check whether Clc1ccc(-c2nocc2-c2ccccc2)cc1 shows Effectiveness below 0.8
Response given: not satisfied

----------
Test system: carrageenan-induced paw edema
Assay: carrageenan-induced rat paw edema, in vivo anti-inflammatory activity
Settings: diclofenac sodium = 1
Mark f for Effectiveness values under 0.6, and t for everything at or above.

Worked cases, answers included:
• Fc1ccc(-c2nocc2-c2ccccc2)cc1 = t
• Oc1ccc(-c2nocc2-c2ccccc2)cc1 = t
• Brc1ccc(-c2nocc2-c2ccccc2)cc1 = f
• Clc1cccc(-c2nocc2-c2ccccc2)c1 = f
• Brc1cccc(-c2nocc2-c2ccccc2)c1 = f

Shift focus to the following entry.
Challenge: Could you verify whether the entry COc1cccc(-c2nocc2-c2ccccc2)c1 shows Effectiveness of no less than 0.6?
Response given: f
